Each entry below carries its recorded AGE-fluorescence (day 5).
Tested on: histone H1 (glycation by ADP-ribose)
protocol_details: AGE-fluorescence screening of glycation inhibitors, histone H1 + ADP-ribose, 96 well microtiter plates
Format: biochemical, calf
measurement_parameters: compound 5 mM; 5 days incubation

For orientation, consider the following solved cases.
CC(C)(S)C(N)C(=O)O (racemic) [D,L-Penicillamine]    2.7 (0.0)
N[C@@H](CCC(=O)N[C@@H](CS)C(=O)NCC(=O)O)C(=O)O [GSH, glutathione]    17 (0.3)
CC(=O)N[C@@H](CS)C(=O)O [NAC, N α-acetyl-L-cysteine, reference compound]    10 (0.4)
N[C@@H](CS)C(=O)NCC(=O)O [L-Cys-Gly, NH2-L-cys-gly-COOH]    26 (0.4)
N[C@@H](CS)C(=O)O [L-Cys, L-cysteine]    11 (0.2)

// returns reported AGE-fluorescence (day 5) for input N=C(N)NN [Aminoguanidine, aminoguanidine, reference compound] 2.2 (0.0)

Another: C[N+](C)(C)[C@@H](Cc1c[nH]c(=S)[nH]1)C(=O)[O-] [L-Ergothioneine] 9.3 (0.2)

Follow-up entry: NC(CCS)C(=O)O (racemic) [D,L-Homocysteine] 22 (0.1)

Try the compound COC(=O)[C@@H](N)CS [L-Cys-OMe, L-cysteine methylester] 12 (0.8)

Values compiled from patent US6716635B2.
